Where do the numbers come from? From patent CN1930187A.

Biological target: EGFRvIII (full length, expressed by cells: NR6 M, H1477, 300.19/EGFRvIII) (human, UniProt P00533 298-1210)
Assay: cell-based or functional assay
measurement_label: %内在化 (%)
Write down the numeric answer in % and omit the unit.

Value of %内在化 reported for the binder AB-EGFRvIII-XG1-095 (antibody, human IgG1, V domains shown) VH: QVQLQESGPFLVKPSQTLSLTCTVSGGSISSGGYYWSWIRQHPGKGLEWIGFIYYRGNTYYNPSLKSRVTISVDTSKNQFSLKLSSVTAADTAVYYCARDGYCSRTGCYGGWFDPWGQGTLVTVSP VL: DIVMTQTPLSSPVTLGQPASISCRSSQSLIHTDGNIYLSWLQQRPGQPPRLLIYKISNRFSGVPDRFSGSGAGTDFTLKISRVEAEDVGVYYCMQGTQFPITFGQGTRLEIK is 72.4

Value of %内在化 reported for the binder SC-EGFRvIII-XG1-139 (antibody, human IgG1, V domains shown) VH: EVQVLESGGGLVQPGGSLRLSCAASGFTFSSYAMSWVRQAPGKGLEWVSAISGSGGSTNYADSVKGRFTISRDNSKNTLYLQMNSLRAEDTAVYYCAGSSGWSEYWGQGTLVTVSS VL: DIQMTQSPSSLSASVGDRVTITCRASQGIRNNLAWYQQKPGKAPKRLIYAASNLQSGVPSRFTGSGSGTEFTLIVSSLQPEDFATYYCLQHHSYPLTSGGGTKVEIK is 80.8

Value of %内在化 reported for the binder SC-EGFRvIII-XG2-150 (antibody, human IgG1, V domains shown) VH: QVQLQQSGPGLVKPSQTLSLTCAISGDSVSSYSSAWNWIRQSPSRGLEWLGRAYHRSRWYYEYAVSVKSRINITPDTSKNQFSLQLNSVTPEDTAVYYCARGSRFDYWGQGTLVTVSS VL: DIVMTQTPLSSPVTLGQPASISCRSSQSLVHRDGNTYLSWLQQRPGQPPRLLIYKISNRFSGVPDRFSGSGAGTDFTLKISRVEAEDVGIYFCMHTTQFPWTFGQGTRVEIK is 20

Value of %内在化 reported for the binder SC-EGFRvIII-XG1-250 (antibody, human IgG1, V domains shown, also called sc250; SC250) VH: EGQLLESGGGWVQPGESLRLSCAASGFTFSSYAMSWVRQAPGKGLEWVSAISGSGGSTNYADSVKGRFTISRDNSKNTLYLQVNSLRVEDTAVYYCAGSSGWSEYWGQGTLVTVSS VL: DIQMTQSPSSLSASVGDSVTITCRTSQGIRKNLGWYQQKPGKAPKRLIYAASSLQSGVPSRFSGSGSGTEFTLTISRLQPEDFATYYCLQHHSYPLTFGGGTRVEIR is 16.7

Value of %内在化 reported for the binder SC-EGFRvIII-XG1-211 (antibody, human IgG1, V domains shown) VH: QVQLVESGGGVVQPGRSLRLSCVASGFTLSSYGMHWVRQAPGKGLEWVAVTSYDGSKKDYADSAKGRFTISRDNSKNTLYLQMNSLRAEDTAVYYCVSEGYCSSSSCYKYYYYGMDVWGQGTTVTVSS VL: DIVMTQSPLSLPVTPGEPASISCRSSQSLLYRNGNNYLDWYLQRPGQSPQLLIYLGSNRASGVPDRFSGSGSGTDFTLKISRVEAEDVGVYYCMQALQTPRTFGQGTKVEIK is 21.6

Value of %内在化 reported for the binder SC-EGFRvIII-XG2-170 (antibody, human IgG1, V domains shown) VH: QVQLQQSGPGLVKPSQTLSLTCAISGDSVSSNNAAWNWIRQSPARGLEWLGRTYYRSKWYNDYVVSVKSRITINPDTSKNQFSLQLNSVTPEDTAVYYCVRATAFDYWGQGTLVTVSS VL: AIVLTQTPLSSPVTLGQPASISCRSSQSLVHRDGNTYLSWLQQRPGQPPRLLIYKISNRFSGVPDRFSGSGAGTDFTLKISRVEPDDVGVYYCMHTTQLPWTFGQGTKVEIK is 20.1
